Provenance of the data: PubChem BioAssay

Below, each of the compounds is paired with its reported viability value.
Assay: MRP1 drug-resistance reversers in H69AR cells – cell-based, doxorubicin co-treatment, pilot screen (AID 601)
Details: H69AR cells, CellTiter-Glo, 72 h; compound alone cytotoxicity; at 10 µM

Compound: CCOC(=O)C1SC2(C(F)F)CC1(O)c1c(c(OC)c3occc3c1OC)O2 (stereo not given)
viability / %: 104

Compound: Cc1ccc(C)c(C2(O)CC(C)N(C)CC2C)c1 (stereo not given)
viability / %: 102

Compound: O=C(C(Cc1ccccc1)NS(=O)(=O)c1ccc(F)cc1)N1CCC2(CC1)OCCO2 (stereo not given)
viability / %: 79

Compound: Cc1ccc2nc(N3CCN(C)CC3)[nH]c2c1
viability / %: 93.6

Compound: O=C(NC1(C(F)(F)F)Oc2ccc(Cl)cc2O1)N1CCC2(CC1)OCCO2 (stereo not given)
viability / %: 27.9

Compound: CC(C)[C@H]1C(=O)N2CCC[C@H]2[C@]2(O)O[C@](NC(=O)[C@@H]3C=C4c5cccc6[nH]cc(c56)C[C@H]4N(C)C3)(C(C)C)C(=O)N12
viability / %: 104

Compound: CCN1CCN(C(=O)COc2cc(=O)n(CC)c3ccccc23)CC1
viability / %: 90.3

Compound: CSc1ccc(CNC2CN3CCC2CC3)cc1 (stereo not given)
viability / %: 89.1

Compound: C[N+]1(C)CCN(c2ccccc2)CC1
viability / %: 84.9

Compound: CCOC(=O)C1=C(N)OC(C)=C(C(=O)OCCOC)C12C(=O)Nc1ccccc12 (stereo not given)
viability / %: 98.2
